Consider the following binders; for each one, report its FACS Cell Binding (Fold Above Background).
- target: T1, human PRLR on cells (endogenous on T47D, T47D#11, MCF7); introduced in HEK293/hPRLR/STAT5-Luc, 293/hPRLR, … (human, UniProt P16471 25-622)
- T1 construct: no tag is stated for these lines; also called prolactin receptor
- T1 sequence: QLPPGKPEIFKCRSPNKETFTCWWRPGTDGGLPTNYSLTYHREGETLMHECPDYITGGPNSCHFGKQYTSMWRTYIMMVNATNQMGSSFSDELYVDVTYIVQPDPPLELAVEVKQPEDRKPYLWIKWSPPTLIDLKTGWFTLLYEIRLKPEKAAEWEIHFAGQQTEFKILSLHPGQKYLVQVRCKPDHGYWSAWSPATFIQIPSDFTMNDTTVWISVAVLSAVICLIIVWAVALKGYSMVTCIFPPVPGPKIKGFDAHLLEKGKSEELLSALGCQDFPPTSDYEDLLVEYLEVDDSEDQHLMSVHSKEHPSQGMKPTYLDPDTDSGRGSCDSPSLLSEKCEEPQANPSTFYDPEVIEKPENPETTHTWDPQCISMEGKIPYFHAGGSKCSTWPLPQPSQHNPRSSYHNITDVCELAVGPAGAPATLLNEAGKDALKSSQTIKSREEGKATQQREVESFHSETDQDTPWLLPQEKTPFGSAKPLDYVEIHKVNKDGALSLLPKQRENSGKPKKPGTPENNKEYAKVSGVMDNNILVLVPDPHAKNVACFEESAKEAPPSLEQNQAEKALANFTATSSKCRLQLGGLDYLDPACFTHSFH
- test_description: FACS on T47D cells
# output: bare number, implied unit fold

get_value(item= H1H6966N (antibody, human IgG1, V domains shown, also called H2M6966N) VH: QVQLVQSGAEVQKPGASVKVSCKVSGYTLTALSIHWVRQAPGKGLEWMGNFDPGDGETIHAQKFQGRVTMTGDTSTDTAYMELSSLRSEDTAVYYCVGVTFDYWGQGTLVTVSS VL: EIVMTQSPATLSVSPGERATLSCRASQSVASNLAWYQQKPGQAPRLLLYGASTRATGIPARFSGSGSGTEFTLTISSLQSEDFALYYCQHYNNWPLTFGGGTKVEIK , readout=FACS Cell Binding (Fold Above Background)) returns 31

get_value(item= H1H6795P (antibody, human IgG1, V domains shown, human IgG1 Fc (H1H)) VH: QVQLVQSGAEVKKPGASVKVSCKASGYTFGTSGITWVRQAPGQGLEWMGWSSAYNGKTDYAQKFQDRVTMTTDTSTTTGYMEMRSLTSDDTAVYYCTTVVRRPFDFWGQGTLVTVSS VL: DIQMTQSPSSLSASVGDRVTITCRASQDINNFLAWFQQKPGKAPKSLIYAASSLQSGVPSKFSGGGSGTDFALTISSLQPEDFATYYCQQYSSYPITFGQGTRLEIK , readout=FACS Cell Binding (Fold Above Background)) returns 34

get_value(item= H1H6958N2 (antibody, human IgG1, V domains shown, also called H2M6958N2) VH: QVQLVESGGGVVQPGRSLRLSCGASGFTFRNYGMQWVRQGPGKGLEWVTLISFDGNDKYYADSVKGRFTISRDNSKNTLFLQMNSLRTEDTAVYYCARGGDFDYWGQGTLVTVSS VL: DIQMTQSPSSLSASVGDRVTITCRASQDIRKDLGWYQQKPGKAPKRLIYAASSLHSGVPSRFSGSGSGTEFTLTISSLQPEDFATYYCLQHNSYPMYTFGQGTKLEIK , readout=FACS Cell Binding (Fold Above Background)) returns 37

get_value(item= H1H6781P (antibody, human IgG1, V domains shown, human IgG1 Fc (H1H)) VH: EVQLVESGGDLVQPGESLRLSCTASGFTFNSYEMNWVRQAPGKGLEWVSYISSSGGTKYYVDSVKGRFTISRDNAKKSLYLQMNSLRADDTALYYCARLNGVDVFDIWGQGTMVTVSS VL: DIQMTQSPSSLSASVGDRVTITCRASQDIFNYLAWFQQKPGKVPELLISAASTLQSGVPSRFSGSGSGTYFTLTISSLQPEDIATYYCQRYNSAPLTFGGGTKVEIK , readout=FACS Cell Binding (Fold Above Background)) returns 40

get_value(item= H1H6960N (antibody, human IgG1, V domains shown, also called H2M6960N) VH: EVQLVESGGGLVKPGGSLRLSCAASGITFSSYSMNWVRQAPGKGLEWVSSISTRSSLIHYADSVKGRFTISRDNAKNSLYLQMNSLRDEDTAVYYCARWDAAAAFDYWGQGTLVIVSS VL: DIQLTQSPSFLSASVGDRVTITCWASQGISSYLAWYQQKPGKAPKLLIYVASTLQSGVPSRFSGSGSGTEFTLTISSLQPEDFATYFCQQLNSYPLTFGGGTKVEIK , readout=FACS Cell Binding (Fold Above Background)) returns 33
